# target-desc: Circumsporozoite protein (CSP) (Plasmodium falciparum (isolate 3D7), UniProt Q7K740)
# Sequence (Q7K740 19-374): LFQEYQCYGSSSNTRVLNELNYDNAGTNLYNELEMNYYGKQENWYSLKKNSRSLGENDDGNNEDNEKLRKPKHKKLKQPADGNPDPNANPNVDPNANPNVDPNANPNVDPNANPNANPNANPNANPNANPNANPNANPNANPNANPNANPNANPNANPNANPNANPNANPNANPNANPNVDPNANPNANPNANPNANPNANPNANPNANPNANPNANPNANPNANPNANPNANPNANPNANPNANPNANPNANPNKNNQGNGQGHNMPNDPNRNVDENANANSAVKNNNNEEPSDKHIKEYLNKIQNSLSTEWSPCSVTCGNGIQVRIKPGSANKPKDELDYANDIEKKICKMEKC
# assay-method-text: AVEXIS screen signal:noise (double-corrected)
No end group written: not given here.
hey, just use yes (1) if measured binding score is less than 1, otherwise no (0)

ADP325 (protein, bait human Fc-tagged dimer) MAAAQEADGARSAVVAAGGGSSGQVTSNGSIGRDPPAETQPQNPPAQPAPNAWQVIKGVLFRIFIIWAISSWFRRGPAPQDQAGPGGAPRVASRNLFPKDTLMNLHVYISEHEHFTDFNATSALFWEQHDLVYGDWTSGENSDGCYEHFAELDIPQSVQQNGSIYIHVYFTKSGFHPDPRQKALYRRLATVHMSRMINKYKRRRFQKTKNLLTGETEADPEMIKRAEDYGPVEVISHWHPNITINIVDDHTPWVKGSVPPPLDQYVKFDAVSGDYYPIIYFNDYWNLQKDYYPINESLASLPLRVSFCPLSLWRWQLYAAQSTKSPWNFLGDELYEQSDEEQDSVKVALLETNP: no (0)
ADP129 (protein, bait human Fc-tagged dimer) MFPFYSCWRTGLLLLLLAVAVRESWQTEEKTCDLVGEKGKESEKELALVKRLKPLFNKSFESTVGQGSDTYIYIFRVCREAGNHTSGAGLVQINKSNGKETVVGRLNETHIFNGSNWIMLIYKGGDEYDNHCGKEQRRAVVMISCNRHTLADNFNPVSEERGKVQDCFYLFEMDSSLACSPEISHLS: no (0)
ADP266 (protein, bait human Fc-tagged dimer) EEFRPEMLQGKKVIVTGASKGIGREMAYHLAKMGAHVVVTARSKETLQKVVSHCLELGAASAHYIAGTMEDMTFAEQFVAQAGKLMGGLDMLILNHITNTSLNLFHDDIHHVRKSMEVNFLSYVVLTVAALPMLKQSNGSIVVVSSLAGKVAYPMVAAYSASKFALDGFFSSIRKEYSVSRVNVSITLCVLGLIDTETAMKAVSGIVHMQAAPKEECALEIIKGGALRQEEVYYDSSLWTTLLIRNPCRKILEFLYSTSYNMDRFINK: yes (1)
ADP282 (protein, bait human Fc-tagged dimer) STWVTSEAYSSPSIVLSARGGDGSRIIFDDFREAYYWLRHNTPEDAKVMSWWDYGYQITAMANRTILVDNNTWNNTHISRVGQAMASTEEKAYEIMRELDVSYVLVIFGGLTGYSSDDINKFLWMVRIGGSTDTGKHIKENDYYTPTGEFRVDREGSPVLLNCLMYKMCYYRFGQVYTEAKRPPGFDRVRNAEIGNKDFELDVLEEAYTTEHWLVRIYKVKDLDNRGLSRT: yes (1)

Here's an entry: ADP287 (protein, also: human Fc-tagged dimer) MANPGLGLLLALGLPFLLARWGRAWGQIQTTSANENSTVLPSSTSSSSDGNLRPEAITA . Is its binding score below 1?
no (0)
